- Target system: T1, IL-18 receptors on HEK-Blue IL-18 reporter cells (UniProt Q13478 19-541; O95256 20-599, limits assumed)
- T1 sequence (looked up) 1: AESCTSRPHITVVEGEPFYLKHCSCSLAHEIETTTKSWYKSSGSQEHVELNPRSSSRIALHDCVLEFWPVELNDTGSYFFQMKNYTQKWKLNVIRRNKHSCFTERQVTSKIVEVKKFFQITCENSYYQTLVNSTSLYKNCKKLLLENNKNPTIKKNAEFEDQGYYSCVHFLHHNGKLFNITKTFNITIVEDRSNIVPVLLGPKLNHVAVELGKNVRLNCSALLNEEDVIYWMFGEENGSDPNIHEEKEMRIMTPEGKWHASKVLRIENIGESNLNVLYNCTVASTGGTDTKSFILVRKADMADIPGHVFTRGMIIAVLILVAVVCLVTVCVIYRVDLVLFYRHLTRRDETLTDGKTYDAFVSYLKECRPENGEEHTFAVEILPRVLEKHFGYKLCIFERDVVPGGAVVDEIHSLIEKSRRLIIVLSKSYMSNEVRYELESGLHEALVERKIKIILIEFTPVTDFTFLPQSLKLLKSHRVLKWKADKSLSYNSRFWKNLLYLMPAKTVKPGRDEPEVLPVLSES
- T1 sequence (looked up) 2: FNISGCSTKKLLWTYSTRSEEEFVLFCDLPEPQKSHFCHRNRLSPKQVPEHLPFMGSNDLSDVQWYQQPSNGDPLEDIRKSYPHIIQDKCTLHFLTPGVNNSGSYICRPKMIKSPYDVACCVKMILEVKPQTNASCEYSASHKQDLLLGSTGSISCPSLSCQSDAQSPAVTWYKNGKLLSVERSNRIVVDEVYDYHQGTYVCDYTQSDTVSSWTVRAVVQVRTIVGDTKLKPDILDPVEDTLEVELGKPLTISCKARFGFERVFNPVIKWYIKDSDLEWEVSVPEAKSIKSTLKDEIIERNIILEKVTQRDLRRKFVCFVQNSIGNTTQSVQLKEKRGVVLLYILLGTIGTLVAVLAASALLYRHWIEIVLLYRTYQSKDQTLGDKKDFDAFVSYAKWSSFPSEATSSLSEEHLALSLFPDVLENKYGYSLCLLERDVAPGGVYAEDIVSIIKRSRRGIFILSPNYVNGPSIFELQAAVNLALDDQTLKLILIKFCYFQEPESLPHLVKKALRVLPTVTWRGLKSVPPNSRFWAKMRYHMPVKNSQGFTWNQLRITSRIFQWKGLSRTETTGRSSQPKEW
- Protocol summary: cell-based or functional assay
Measurement type: HEK-blue EC50 (pM) - BP

Known results for binders:
- Binder: "human IL-18 variant G3V/K53S/M60K (ligand) YFVKLESKLSVIRNLNDQVLFIDQGNRPLFEDMTDSDMRDNAPRTIFIISMYSDSQPRGKAVTISVKSEKISTLSSENKIISFKEMNPPDNIKDTKSDIIFFQRSVPGHDNKMQFESSSYEGYFLASEKERDLFKLILKKEDELGDRSIMFTVQNED"
  Measurement type: "HEK-blue EC50 (pM) - BP"
  Test value: "0.021 pM"
- Binder: "human IL-18 variant G3V/M60K (ligand) YFVKLESKLSVIRNLNDQVLFIDQGNRPLFEDMTDSDMRDNAPRTIFIISMYKDSQPRGKAVTISVKSEKISTLSSENKIISFKEMNPPDNIKDTKSDIIFFQRSVPGHDNKMQFESSSYEGYFLASEKERDLFKLILKKEDELGDRSIMFTVQNED"
  Measurement type: "HEK-blue EC50 (pM) - BP"
  Test value: "1.43 pM"
- Binder: "human IL-18 variant G3T/K53S/M60K (ligand) YFTKLESKLSVIRNLNDQVLFIDQGNRPLFEDMTDSDMRDNAPRTIFIISMYSDSQPRGKAVTISVKSEKISTLSSENKIISFKEMNPPDNIKDTKSDIIFFQRSVPGHDNKMQFESSSYEGYFLASEKERDLFKLILKKEDELGDRSIMFTVQNED"
  Measurement type: "HEK-blue EC50 (pM) - BP"
  Test value: "5.53 pM"

Please give HEK-blue EC50 (pM) - BP, item by item, for the list that follows.
1. human IL-18 variant G3V/E6K/K53S/M60K (ligand) YFVKLKSKLSVIRNLNDQVLFIDQGNRPLFEDMTDSDMRDNAPRTIFIISMYSDSQPRGKAVTISVKSEKISTLSSENKIISFKEMNPPDNIKDTKSDIIFFQRSVPGHDNKMQFESSSYEGYFLASEKERDLFKLILKKEDELGDRSIMFTVQNED
2. human IL-18 variant G3V/E6K/K53A (ligand) YFVKLKSKLSVIRNLNDQVLFIDQGNRPLFEDMTDSDMRDNAPRTIFIISMYADSQPRGMAVTISVKSEKISTLSSENKIISFKEMNPPDNIKDTKSDIIFFQRSVPGHDNKMQFESSSYEGYFLASEKERDLFKLILKKEDELGDRSIMFTVQNED
3. human IL-18 variant G3T/E6K/K53A/M60K (ligand) YFTKLKSKLSVIRNLNDQVLFIDQGNRPLFEDMTDSDMRDNAPRTIFIISMYADSQPRGKAVTISVKSEKISTLSSENKIISFKEMNPPDNIKDTKSDIIFFQRSVPGHDNKMQFESSSYEGYFLASEKERDLFKLILKKEDELGDRSIMFTVQNED
4. human IL-18 variant G3V/E6K/K53A/M60K (ligand) YFVKLKSKLSVIRNLNDQVLFIDQGNRPLFEDMTDSDMRDNAPRTIFIISMYADSQPRGKAVTISVKSEKISTLSSENKIISFKEMNPPDNIKDTKSDIIFFQRSVPGHDNKMQFESSSYEGYFLASEKERDLFKLILKKEDELGDRSIMFTVQNED
5. human IL-18 variant G3T/K53A/M60K (ligand) YFTKLESKLSVIRNLNDQVLFIDQGNRPLFEDMTDSDMRDNAPRTIFIISMYADSQPRGKAVTISVKSEKISTLSSENKIISFKEMNPPDNIKDTKSDIIFFQRSVPGHDNKMQFESSSYEGYFLASEKERDLFKLILKKEDELGDRSIMFTVQNED
6. human IL-18 variant G3T/E6K/K53S/M60K (ligand) YFTKLKSKLSVIRNLNDQVLFIDQGNRPLFEDMTDSDMRDNAPRTIFIISMYSDSQPRGKAVTISVKSEKISTLSSENKIISFKEMNPPDNIKDTKSDIIFFQRSVPGHDNKMQFESSSYEGYFLASEKERDLFKLILKKEDELGDRSIMFTVQNED
7. human IL-18 variant G3V/K53A/M60K (ligand) YFVKLESKLSVIRNLNDQVLFIDQGNRPLFEDMTDSDMRDNAPRTIFIISMYADSQPRGKAVTISVKSEKISTLSSENKIISFKEMNPPDNIKDTKSDIIFFQRSVPGHDNKMQFESSSYEGYFLASEKERDLFKLILKKEDELGDRSIMFTVQNED

### Response
0.089 pM
0.05 pM
0.054 pM
0.031 pM
1.88 pM
0.252 pM
0.086 pM
